Data credit: ChEMBL document CHEMBL1151449

- Test system: Streptococcus pneumoniae
- experiment: Antibacterial activity against Streptococcus pneumoniae HMC 2538 harboring S81Y mutation in quinolone-resistant determining regions of GyrA gene, S79F, K137N mutation in QRDR of ParC gene and I460V mutation in QRDR of ParE gene showing efflux to ciprofloxacin, levofloxacin, gatifloxacin by agar dilution method
- Format: functional
Documented MIC across a set of molecules
Dear colleague, please return just the value in µg/mL, with no unit written.

Here are 4 molecules together with their reported answers.
INSERT INTO results (molecule, system_under_test, value_measured) VALUES
  ('CO/N=C1\CN(c2nc3c(cc2F)c(=O)c(C(=O)O)cn3C2CC2)CC1CN (stereo not given)', 'Streptococcus pneumoniae', 0.25),
  ('COc1c(N2CCNC(C)C2)c(F)cc2c(=O)c(C(=O)O)cn(C3CC3)c12 (stereo not given)', 'Streptococcus pneumoniae', 8),
  ('O=C(O)c1cn(C2CC2)c2cc(N3CCNCC3)c(F)cc2c1=O', 'Streptococcus pneumoniae', 16),
  ('COc1c(N2CC3(CC3)[C@](C)(N)C2)c(F)cc2c(=O)c(C(=O)O)cn([C@@H]3C[C@@H]3F)c12.O', 'Streptococcus pneumoniae', 1);

Now for another entry.
## Task Give the measured MIC of `COc1c(N2C[C@@H]3CCCN[C@@H]3C2)c(F)cc2c(=O)c(C(=O)O)cn(C3CC3)c12` .
## Result 2

---

- System: Streptococcus pneumoniae
- experiment: Antibacterial activity against penicillin-resistant and quinolone-susceptible Streptococcus pneumoniae HMC 228 expressing ermB and harboring S81F mutation in quinolone-resistant determining regions of GyrA gene, S79Y mutation in QRDR of ParC gene and I460V mutation in QRDR of ParE gene after 38 passages with gatifloxacin measured after 10 daily antibiotic-free subculturing by multi-step resistance selection technique
- Assay type: functional
Reported values of MIC for individual entries
Record the value in µg/mL, omitting the unit from your answer.

INSERT INTO measurements (compound, uom, value_measured) VALUES
  ('COc1c(N2CCNC(C)C2)c(F)cc2c(=O)c(C(=O)O)cn(C3CC3)c12 (stereo not given)', 'µg/mL', 4);

## Task Which measured MIC belongs to `COc1c(N2C[C@@H]3CCCN[C@@H]3C2)c(F)cc2c(=O)c(C(=O)O)cn(C3CC3)c12` , tested on Streptococcus pneumoniae?
## Result 4

## Task GET /values?readout=MIC&system=Streptococcus pneumoniae&item= `COc1c(N2CC3(CC3)[C@](C)(N)C2)c(F)cc2c(=O)c(C(=O)O)cn([C@@H]3C[C@@H]3F)c12.O`
## Result 1

## Task Tell me reported MIC for `CC[C@H]1OC(=O)[C@H](C)[C@@H](O[C@H]2C[C@@](C)(OC)[C@@H](O)[C@H](C)O2)[C@H](C)[C@@H](O[C@@H]2O[C@H](C)C[C@H](N(C)C)[C@H]2O)[C@](C)(O)C[C@@H](C)CN(C)[C@H](C)[C@@H](O)[C@]1(C)O` , tested with Streptococcus pneumoniae.
## Result 2

---

- Tested on: Streptococcus pneumoniae
- experiment: Antibacterial activity against penicillin-, quinolone-resistant and macrolide-susceptible Streptococcus pneumoniae HMC 1058 harboring S79F, K137N mutation in quinolone-resistant determining regions of ParC gene and 460V mutation in QRDR of ParE gene by broth microdilution method
- Format: functional
Hi! Just check whether MIC is below 0.5 µg/mL. Below gives rule met, equal or above gives rule not met.

Field: example entries. Status: answers known.
INSERT INTO assay_data (compound, label_class) VALUES
  ('CO/N=C1\CN(c2nc3c(cc2F)c(=O)c(C(=O)O)cn3C2CC2)CC1CN (stereo not given) [GEMIFLOXACIN]', 'rule met'),
  ('CC[C@H]1OC(=O)[C@H](C)[C@@H](O[C@H]2C[C@@](C)(OC)[C@@H](O)[C@H](C)O2)[C@H](C)[C@@H](O[C@@H]2O[C@H](C)C[C@H](N(C)C)[C@H]2O)[C@](C)(O)C[C@@H](C)CN(C)[C@H](C)[C@@H](O)[C@]1(C)O [AZITHROMYCIN]', 'rule met'),
  ('COc1c(N2CCNC(C)C2)c(F)cc2c(=O)c(C(=O)O)cn(C3CC3)c12 (stereo not given) [GATIFLOXACIN]', 'rule not met');

Here's the next entry for you.
## Task Lab note: MIC threshold 0.5 µg/mL. Does this compound come in strictly under it? COc1c(N2C[C@@H]3CCCN[C@@H]3C2)c(F)cc2c(=O)c(C(=O)O)cn(C3CC3)c12 [MOXIFLOXACIN]
## Result rule not met
